assay: in vitro; settings: human, hela cells, % viability, bulk resorufin, single well
In this section we review reported viability at 28.5 h, 10 µM values for a set of molecules.

{"molecule": "CCN(CC)S(=O)(=O)c1ccc(N/C=C2/C(=O)NC(=O)N(c3ccccc3)C2=O)cc1", "unitLabel": "%", "viability at 28.5 h, 10 µM": 89.9}
{"molecule": "COc1ccccc1C1OC(=O)CC1C(=O)N1CCC(C(C)=O)(c2ccccc2)CC1 (stereo not drawn)", "unitLabel": "%", "viability at 28.5 h, 10 µM": 104}
{"molecule": "COc1ccc(OC(=O)Nc2nn(Cc3ccc(C#N)cc3)c3ccc(C)cc23)cc1", "unitLabel": "%", "viability at 28.5 h, 10 µM": 74.4}
{"molecule": "COc1cc(-c2ccc3c(c2)COC2(CCN(C(=O)OC(C)(C)C)CC2)O3)ccc1O", "unitLabel": "%", "viability at 28.5 h, 10 µM": 116}
{"molecule": "CCOc1cc(C=C2C(=O)NC(=S)NC2=O)ccc1OCc1c(C)no[n+]1[O-]", "unitLabel": "%", "viability at 28.5 h, 10 µM": 99.3}
{"molecule": "O=C1NC(=O)N(c2ccc(Br)cc2)C(=O)/C1=C/c1ccc(O)c(O)c1", "unitLabel": "%", "viability at 28.5 h, 10 µM": 104}
{"molecule": "Cc1cccc(CNC(Cc2ccsc2)c2nccs2)n1 (stereo not drawn)", "unitLabel": "%", "viability at 28.5 h, 10 µM": 106}
{"molecule": "O=C1NC(=S)N(Cc2ccco2)C(=O)/C1=C\\c1ccc(-c2ccc(Cl)c(C(=O)O)c2)o1", "unitLabel": "%", "viability at 28.5 h, 10 µM": 90.1}
{"molecule": "CC1CC1C(=O)N1CCC(C#N)(c2ccccc2)CC1 (stereo not drawn)", "unitLabel": "%", "viability at 28.5 h, 10 µM": 99}
